MEASURED ON: T1, human BCMA (human, UniProt Q02223 1-54)
T1 construct: also called huBCMA; hBCMA
T1 sequence: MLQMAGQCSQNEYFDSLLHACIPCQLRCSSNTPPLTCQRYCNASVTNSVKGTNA
ASSAY OVERVIEW: SPR, immobilised IgG, 37° C
MEASURED PROPERTY: T½ (min)
Write it as a number; the unit min goes unstated.

{"columns": ["BINDER", "MEASURED PROPERTY", "READOUT UNIT", "ENDPOINT VALUE"],
 "data": [
  ["L3.PY/L1.PS/H2.DY (antibody, V domains shown, IgG in the assay) VH: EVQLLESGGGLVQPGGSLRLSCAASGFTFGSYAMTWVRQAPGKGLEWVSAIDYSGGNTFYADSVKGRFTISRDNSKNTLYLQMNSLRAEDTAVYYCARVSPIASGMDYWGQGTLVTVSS VL: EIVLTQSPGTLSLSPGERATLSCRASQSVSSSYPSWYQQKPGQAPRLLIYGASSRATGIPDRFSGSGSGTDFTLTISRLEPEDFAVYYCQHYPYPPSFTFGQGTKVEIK", "T½", "min", 3.2]
]}

Give a short answer stating reported T½ for L3.PY/L3.KY/H2.HA (antibody, V domains shown, IgG in the assay) VH: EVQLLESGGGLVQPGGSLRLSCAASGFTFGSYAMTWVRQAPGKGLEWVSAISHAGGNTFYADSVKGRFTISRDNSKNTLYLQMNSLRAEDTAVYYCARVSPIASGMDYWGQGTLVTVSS VL: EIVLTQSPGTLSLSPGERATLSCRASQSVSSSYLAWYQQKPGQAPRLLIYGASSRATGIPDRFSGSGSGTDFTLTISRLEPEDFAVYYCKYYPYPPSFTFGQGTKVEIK . 7.1

Tell me its T½ given L3.PY/L1.PS/P6E01 (antibody, V domains shown, IgG in the assay) VH: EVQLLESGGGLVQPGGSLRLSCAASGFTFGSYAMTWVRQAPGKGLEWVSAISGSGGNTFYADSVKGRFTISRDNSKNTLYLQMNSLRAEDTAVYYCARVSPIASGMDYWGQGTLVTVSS VL: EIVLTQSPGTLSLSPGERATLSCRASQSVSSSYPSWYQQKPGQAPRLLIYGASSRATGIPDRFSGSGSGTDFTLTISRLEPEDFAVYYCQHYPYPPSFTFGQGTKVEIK as the entry. 10.2

Output T½ of L3.PY/L1.PH/H3.AE (antibody, V domains shown, IgG in the assay) VH: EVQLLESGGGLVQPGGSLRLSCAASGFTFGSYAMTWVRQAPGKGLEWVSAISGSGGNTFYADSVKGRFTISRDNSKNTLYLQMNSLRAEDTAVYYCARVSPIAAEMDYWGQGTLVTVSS VL: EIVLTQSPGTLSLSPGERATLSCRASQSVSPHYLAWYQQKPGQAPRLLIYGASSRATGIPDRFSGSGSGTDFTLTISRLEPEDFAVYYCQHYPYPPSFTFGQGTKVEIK 8.61

Given the binder L3.PY/L1.AH/P6E01 (antibody, V domains shown, IgG in the assay) VH: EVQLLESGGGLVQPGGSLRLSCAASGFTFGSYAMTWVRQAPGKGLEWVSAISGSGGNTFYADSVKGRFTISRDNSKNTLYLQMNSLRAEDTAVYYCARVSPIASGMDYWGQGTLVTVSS VL: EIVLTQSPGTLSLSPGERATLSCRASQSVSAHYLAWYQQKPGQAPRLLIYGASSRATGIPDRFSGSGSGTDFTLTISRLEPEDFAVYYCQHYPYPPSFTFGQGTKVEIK , write its reported T½. 9.19
